meta.source: PubChem BioAssay (NCI)

experiment: NCI Yeast Anticancer Drug Screen. Data for the mlh1 strain (AID 171);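 note: 0% = growth of vehicle-treated control cultures of the same strain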; conditions: S. cerevisiae mlh1 strain growth inhibition; at 100.0 µM
This is part of a sample that, as a whole, favours compounds with a hit. Of some 79,000 tested, about 15% had one in any assay. Active and inactive are the calls of the source. Cut-off read from the data, not from the text of the source: active = growth inhibition above about 70%; inactive = the rest.
Log the outcome using a class from active, inactive

Could you kindly confirm the outcome this assay logged for CCN(CC)CC(=O)c1ccc2cc(Cl)c3ccccc3c2c1 ?
active

How did this test come out for C/C(=N\Sc1ccccc1)c1ccccc1O ?
active

What outcome does the record of this test show for O=C1C=CC(=Nc2cccc3c2-c2ccccc2C3=O)O1 ?
active

Please indicate how the test categorized CSC(=S)N/N=C/c1ccccc1 .
inactive

Outcome logged for CCN(CC)C(=S)SC(=S)N(CC)CC in this assay:
active

Each compound tested received a call. Report the one for NC(N)=NC(N)=Nc1ccccc1 (tested in a mixture with another compound) .
inactive

Outcome logged for CC(C)=CCC/C(C)=C/CN1C(=O)C=CC1=O in this assay:
active

In this assay, the call recorded for CC(C)S(=O)(=O)/C=C\S(=O)(=O)C(C)C was what?
active

Recorded test call requested for O=C(CCSC1=NCCCN1)c1ccc(F)cc1
active

What did the test return for CCCCN(CCCC)c1ccc(N=Nc2ccc(S(=O)(=O)O)cc2)cc1 ?
active

###

experiment: NCI Yeast Anticancer Drug Screen. Data for the mlh1 rad18 strain (AID 175); conditions: S. cerevisiae mlh1 rad18 strain growth inhibition; at 5.0 µM (retest, dose inferred, filed as 0.5); active compounds read high
The panel holds about 79,000 compounds, 15% with a hit somewhere; the sample as a whole holds those more often.
PROPERTY: growth inhibition (%)
Report the value in % with no unit label.

response.value for CCN(CC)CCNc1ccc(C)c2sc3ccc(O)cc3c(=O)c12 (field: growth inhibition) = 12

Kindly note the recorded growth inhibition for CC(C)OC(=O)NNc1cccc(Cl)c1 , which is 69

Just so you know, measured growth inhibition for CCOP(=O)(OCC)/C(C#N)=C/c1ccc(-c2ccc(F)cc2F)o1 came out at 60

Record CCCCN(CCCC)c1ccc(N=Nc2ccc(S(=O)(=O)O)cc2)cc1 . Reported growth inhibition: 51

Looking up COC(=O)C(=O)c1c(-c2ccc(Cl)c(Cl)c2)[nH]c2[nH]n(-c3ccccc3)c(=O)c2c1=O , I see its growth inhibition listed as -7

Recorded result, O=C1c2cccc3cccc(c23)C(=O)N1O , growth inhibition: 23

Quick note, growth inhibition for CN(N=O)C(=O)Nc1ccc(C(=O)O)cc1 landed at 16

// growth inhibition lookup, compound = NC(=S)N1N=C2c3ccccc3CC[C@@H]2[C@@H]1c1ccccc1 , result: -15

Kindly note the recorded growth inhibition for COc1cc2oc3ccccc3c(=O)c2cc1CSc1ccccc1N , which is 15

Value of measured growth inhibition for the entry Nc1cc(Cl)ccc1Nc1ccccc1 : 62

###

test: NCI Yeast Anticancer Drug Screen. Data for the rad18 strain (AID 177); conditions: S. cerevisiae rad18 mutant growth inhibition; at 33.0 µM
About 79,000 compounds went through this panel and 15% of them were active in at least one assay; those are over-represented in the sample as a whole. The source made the active and inactive calls. Rule as the data show it: active = growth inhibition above about 70%; inactive = the rest.
Write down one outcome, taken from t (active), f (inactive)

Which result was noted for this compound in the test: c1ccc(-c2cc(C3CO3)c3ccccc3n2)cc1 (configuration not stated)
t

Each compound tested received a call. Report the one for COc1c2c(c3c(c1CCC(=O)O)OC(C)(C)C=C3)OC(C)(C)C=C2 .
f

Lab log entry: O=C1c2ccccc2-c2ccc(N=Cc3ccccc3)cc21 — outcome as called in the assay?
f

// return assay outcome for COc1cc([C@@H]2c3cc4c(cc3[C@@H](NC(=O)NO)[C@H]3COC(=O)[C@H]23)OCO4)cc(OC)c1O
f

Assay result, entry O=C(Cc1ccccc1)NNc1nc(NNC(=O)c2ccncc2)nc(Nc2ccc([N+](=O)[O-])cc2)n1 — outcome?
f

Recorded call for CCOP(=O)(OCC)/C(C#N)=C/c1ccc(-c2ccc(F)cc2F)o1 ?
f

// return assay outcome for CN(C)N=Nc1ccc(N(C)C)cc1
f

Dear colleague, could you share the recorded outcome for Cc1ccc(S(=O)(=O)Nc2cccc3cccnc23)cc1 when you have a moment?
t

In this assay, the call recorded for Cc1ccnc2c(O)cccc12 was what?
t

Give the logged outcome of this assay for the following compound: O=[N+]([O-])c1ccc2nc(=S)[nH]n2c1
f

What is the recorded call for this compound in the test? Nc1cc2ccccc2cc1N
f

Which outcome was entered for the compound CCC(/C=C/c1ccccc1)=N\Nc1ccc(Cl)cc1 in this test?
t

###

test: NCI Yeast Anticancer Drug Screen. Data for the CLN2oe strain (AID 163);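 note: 0% = growth of vehicle-only control cultures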; conditions: S. cerevisiae CLN2oe strain, at 100.0 µM, active compounds read high
About 79,000 compounds went through this panel and 15% of them were active in at least one assay; those are over-represented in the sample as a whole.
PROPERTY: growth inhibition (%)
Answer with a number only, understood to be in %.

molecule COC(=O)C1=C(C(=O)OC)CC(n2nnc(C(=O)OC)c2C(=O)OC)=CC1 , growth inhibition observed: -7

Noted for O=C(NCCCCN1CC2CCCC2C1)C(C1CCCCC1)C1CCCCC1 (stereo not drawn) : its growth inhibition reads 98

Entry COc1cc2c(cc1O)[C@H](C)C(c1ccccc1OC)O2 (stereo partly drawn) — recorded growth inhibition = 97

Documented growth inhibition of Fc1cc(F)c(F)c(S)c1F : 98

Sample [N-]=[N+]=NC1(c2ccccc2)C(=O)Nc2ccccc2C1=O (stereo not drawn) ; growth inhibition observed: 61

CO[C@@]1([C@@H](Cl)c2ccccc2)C(=O)N(C)/C(=C\c2ccccc2)C(=O)N1C has a reported growth inhibition of 7

Input O=C(Nc1cccs1)c1ccccc1 . Output growth inhibition: 53

Record CC1C(c2ccccc2)SC(=N)N1C (stereo not drawn) , field growth inhibition: -2

Please fill in: growth inhibition reported for C1=CCN([B-](c2ccccc2)[C+]2CCCCC2)C=C1 = 95

Noted for O/N=c1/ccn(O)c2ccccc12 : its growth inhibition reads 58

GET /value?item= CC(/C=C/c1ccc([N+](=O)[O-])o1)=N/N1CC(CN2CCOCC2)OC1=O (stereo not drawn) &field=growth inhibition returns 90

Entry CC(C(=O)N1C(=O)N(C(=O)C(C)C(O)c2ccccc2)C2CCCCC21)C(O)c1ccccc1 (stereo not drawn) ; growth inhibition = 15

// sample c1c[nH]c(CN2CCN(Cc3ncc[nH]3)CC2)n1 , its growth inhibition was 98

Field growth inhibition (entry CCCCCCCCCCCCCCCCCCN(C)C(COC)COP(=O)([O-])OCC[N+](C)(C)C (stereo not drawn) ) reads 98

The reported growth inhibition of the molecule C/C(=N\OCC(O)CNCCSCc1ccccc1)c1ccccc1Cl (stereo not drawn) was 75

For this molecule ( COc1ccc2c3c1OC(C)C31CC(=O)CCC1CC2 (stereo not drawn) ), measured growth inhibition is 8

The recorded growth inhibition for entry CNCC(C)CNC equals -12

growth inhibition reading for CCCN=Cc1cc(Cc2ccc(O)c(C=NCCC)c2)ccc1O : 98

###

experiment: NCI Yeast Anticancer Drug Screen. Data for the rad14 strain (AID 159);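 note: 0% = growth of vehicle-treated control cultures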; details: S. cerevisiae rad14 strain growth inhibition; at 100.0 µM
This is part of a sample that, as a whole, favours compounds with a hit. Of some 79,000 tested, about 15% had one in any assay. Calls of active or inactive are those of the source. Rule as the data show it: active = growth inhibition above about 70%; inactive = the rest.
In this exercise, the only acceptable responses are yes (1) for active, no (0) for inactive

Would you mind telling me which call this test gave CN(C)/C(=N/C(=S)Nc1ccccc1)SCc1ccccc1 ?
no (0)

Name the outcome recorded for C1=CCN([B-](c2ccccc2)[C+]2CCCCC2)C=C1 in the assay.
yes (1)

For Cc1cc(Cl)ccc1NC(=O)/C(Cl)=C(/Cl)C(=O)O , which call appears in the assay record?
yes (1)

###

Please respond with reported growth inhibition for every item in the list.
Test: NCI Yeast Anticancer Drug Screen. Data for the mlh1 strain (AID 171);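 note: 0% = growth of vehicle-treated control cultures of the same strain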
Settings: S. cerevisiae mlh1 strain growth inhibition; at 3.7 µM; active compounds read high
Protocol: Growth inhibition of yeast strains with defined genetic alterations is measured as a screen for potential anti-cancer activity. Selected strains with alterations in DNA damage repair or cell cycle control were exposed to compounds and growth inhibition was measured relative to vehicle treated controls. The strain used in this assay is mlh1
The panel holds about 79,000 compounds, 15% with a hit somewhere; the sample as a whole holds those more often.
Number in %, nothing else.

Just so you know, measured growth inhibition for CSc1nc(-c2ccccc2)nc(=[N+]2CCOCC2)s1 came out at 10

Noted for C=COC(=O)N[C@H]1CCc2cc(OC)c(OC)c(OC)c2-c2ccc(SC)c(=O)cc21 : its growth inhibition reads -1

The recorded growth inhibition for CCCCS/C(=C(/C#N)C(N)=O)c1cc2c([nH]1)CCCC2 is -19

# compound CCC(OC(C)=O)C1CC(C(C)C)CCC1C (stereo unspecified) ; its growth inhibition = 1

Field growth inhibition (entry O=Cc1ccccc1C=O ) reads -5

In plain terms, Cc1cc(OCc2nc(N)nc(N)c2-c2ccc(Cl)c(Cl)c2)ccc1[N+](=O)[O-] has a documented growth inhibition of 0
